molecular target: HIV-1 protease (Q7S) (Human immunodeficiency virus type 1 group M subtype B, UniProt P04585, Q495S); construct: made in house; assay: HIV-1 Protease RET Assay; type: biochemical; details: Ki, table of drawn compounds, unit inferred
measured_property: pKi
Interpret pKi as the negative base-10 log of the concentration measured in mol/L.

Data point: `Cc1ccccc1CNC(=O)[C@H]1N(C(=O)[C@@H](O)[C@H](Cc2ccccc2)NC(=O)c2c[nH]cn2)CSC1(C)C` ; pKi = 7.25

pKi for `Cc1c(O)cccc1C(=O)N[C@@H](Cc1ccccc1)[C@H](O)C(=O)N1CSC(C)(C)[C@H]1C(=O)NCc1cccc(OCC(C)C)c1` is 8.96

Note to self: pKi recorded for `C#CCNC(=O)[C@H]1N(C(=O)[C@@H](O)[C@H](Cc2ccccc2)NC(=O)[C@@H]2CCCO2)CSC1(C)C` was 7.77

In plain terms, `Cc1cc(C(=O)N[C@@H](Cc2ccccc2)[C@H](O)C(=O)N2CSC(C)(C)[C@H]2C(=O)NCc2ccccc2C)n[nH]1` has a documented pKi of 7.71

Reported pKi for `Cc1c(O)cccc1C(=O)N[C@@H](Cc1ccccc1)[C@H](O)C(=O)N1CSC(C)(C)[C@H]1C(=O)NCc1cc(F)c(F)cc1F` was 9.77

// `Cc1ccccc1CNC(=O)[C@H]1N(C(=O)[C@@H](O)[C@H](Cc2ccccc2)NC(=O)C2CCCC2)CSC1(C)C` : pKi value = 7.92

What the record says about `Cc1cc(C(=O)N[C@@H](Cc2ccccc2)[C@H](O)C(=O)N2CSC(C)(C)[C@H]2C(=O)NCc2ccccc2C)no1` : pKi is 8.59

Lookup result for `COc1cccc(C(=O)[C@H]2N(C(=O)[C@@H](O)[C@H](Cc3ccccc3)NC(=O)c3cccc(O)c3C)CSC2(C)C)c1` ; measured pKi: 8.13

Measured pKi, `COc1cccc(CNC(=O)[C@H]2N(C(=O)[C@@H](O)[C@H](Cc3ccccc3)NC(=O)c3ccc(C)c(O)c3C)CSC2(C)C)c1` : 8.43

Query `Cc1cc(C(=O)N[C@@H](Cc2ccccc2)[C@H](O)C(=O)N2CSC(C)(C)[C@H]2C(=O)NCc2ccc(Cl)cc2C)no1` yields pKi of 7.55

molecule `Cc1ccccc1CNC(=O)[C@H]1N(C(=O)[C@@H](O)[C@H](Cc2ccccc2)NC(=O)N2CCSC2)CSC1(C)C` , pKi observed: 7.85

The molecule identified as `Cc1c(O)cccc1C(=O)N[C@@H](Cc1ccccc1)[C@H](O)C(=O)N1CSC(C)(C)[C@H]1C(=O)NCc1cccc(CN(C)C)c1` registered its pKi at 7.98

Summary for this molecule, `Cc1cc(Cl)ccc1CNC(=O)[C@H]1N(C(=O)[C@@H](O)[C@H](Cc2ccccc2)NC(=O)c2cccc(O)c2C)CSC1(C)C` : pKi is 9.59

The molecule identified as `CCC/C=C/CNC(=O)[C@H]1N(C(=O)[C@@H](O)[C@H](Cc2ccccc2)NC(=O)c2cccc(O)c2C)CSC1(C)C` registered its pKi at 8.59

Sample `Cc1ncc(C(=O)N[C@@H](Cc2ccccc2)[C@H](O)C(=O)N2CSC(C)(C)[C@H]2C(=O)NCc2ccccc2C)c(=O)[nH]1` ; pKi observed: 6.68

Note to self: pKi recorded for `Cc1c(O)cccc1C(=O)N[C@@H](Cc1ccccc1)[C@H](O)C(=O)N1CSC(C)(C)[C@H]1C(=O)NCc1ccc(C(F)(F)F)cc1F` was 7.95

Given item `COc1ccccc1C(=O)N[C@@H](Cc1ccccc1)[C@H](O)C(=O)N1CSC(C)(C)[C@H]1C(=O)NCc1ccccc1C` , the value recorded as its pKi is 8.68

// `Cc1c(O)cccc1C(=O)N[C@@H](Cc1ccccc1)[C@H](O)C(=O)N1CSC(C)(C)[C@H]1C(=O)c1ccccc1` : pKi value = 8.60

For this molecule ( `Cc1ccccc1CNC(=O)[C@H]1N(C(=O)[C@@H](O)[C@H](Cc2ccccc2)NC(=O)c2cnc(C(F)(F)F)[nH]c2=O)CSC1(C)C` ), measured pKi is 5.77

Value of pKi reported for the molecule `Cc1c(O)cccc1C(=O)N[C@@H](Cc1ccccc1)[C@H](O)C(=O)N1CSC(C)(C)[C@H]1C(=O)NCc1cccc(C(F)(F)F)c1F` is 7.21

`Cc1ccc(CNC(=O)[C@H]2N(C(=O)[C@@H](O)[C@H](Cc3ccccc3)NC(=O)c3cccc(O)c3C)CSC2(C)C)cc1` yielded pKi of 9.14
